From: patent US20250361288A1

Biological target: T1, human HVEM extracellular domain fused with an Fc fragment at the C-terminus (human, UniProt Q92956 39-202)
T1 construct: extracellular domain; Bought; also called hHVEM; not shown: Fc fragment at the C-terminus
T1 sequence (looked up): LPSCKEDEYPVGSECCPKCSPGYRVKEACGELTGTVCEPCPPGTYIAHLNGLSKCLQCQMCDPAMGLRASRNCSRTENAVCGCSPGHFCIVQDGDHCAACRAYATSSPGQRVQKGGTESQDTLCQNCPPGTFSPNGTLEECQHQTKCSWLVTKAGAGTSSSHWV
Test: ELISA on coated target-Fc
Each entry below carries its reported log10 of EC50.
Value Kind: log10 of EC50 (log10 of the value in nM)

[[record]]
binder = "LIGHT-58 (ligand, Printed mutations: S160G, T161G, L220S; Soluble protein carries an N-terminal His tag) DGPAGSWEQLIQERRSHEVNPAAHLTGANSSLTGSGGPLLWETQLGLAFLRGLSYHDGALVVTKAGYYYIYSKVQLGGVGCPLGLAGGITHGLYKRTPRYPEELELLVSQQSPCGRATSSSRVWWDSSFLGGVVHLEAGEKVVVRVSDERLVRLRDGTRSYFGAFMV"
value_observed = -0.36

[[record]]
binder = "LIGHT-60 (ligand, Printed mutations: S160G, T161G, L220S, E222S; Soluble protein carries an N-terminal His tag) DGPAGSWEQLIQERRSHEVNPAAHLTGANSSLTGSGGPLLWETQLGLAFLRGLSYHDGALVVTKAGYYYIYSKVQLGGVGCPLGLAGGITHGLYKRTPRYPEELELLVSQQSPCGRATSSSRVWWDSSFLGGVVHLEAGEKVVVRVSDSRLVRLRDGTRSYFGAFMV"
value_observed = -0.19

[[record]]
binder = "LIGHT-87 (ligand, Printed mutations: G150R, S160R, W198Q, L220S, R228L; Soluble protein carries an N-terminal His tag) DGPAGSWEQLIQERRSHEVNPAAHLTGANSSLTGSGGPLLWETQLGLAFLRGLSYHDGALVVTKAGYYYIYSKVQLRGVGCPLGLARTITHGLYKRTPRYPEELELLVSQQSPCGRATSSSRVWQDSSFLGGVVHLEAGEKVVVRVSDERLVRLLDGTRSYFGAFMV"
value_observed = 0.82

[[record]]
binder = "LIGHT-61 (ligand, Printed mutations: S160G, T161P, L220S, E222S; Soluble protein carries an N-terminal His tag) DGPAGSWEQLIQERRSHEVNPAAHLTGANSSLTGSGGPLLWETQLGLAFLRGLSYHDGALVVTKAGYYYIYSKVQLGGVGCPLGLAGPITHGLYKRTPRYPEELELLVSQQSPCGRATSSSRVWWDSSFLGGVVHLEAGEKVVVRVSDSRLVRLRDGTRSYFGAFMV"
value_observed = -0.34

[[record]]
binder = "LIGHT-86 (ligand, Printed mutations: G150R, S160R, L220S; Soluble protein carries an N-terminal His tag) DGPAGSWEQLIQERRSHEVNPAAHLTGANSSLTGSGGPLLWETQLGLAFLRGLSYHDGALVVTKAGYYYIYSKVQLRGVGCPLGLARTITHGLYKRTPRYPEELELLVSQQSPCGRATSSSRVWWDSSFLGGVVHLEAGEKVVVRVSDERLVRLRDGTRSYFGAFMV"
value_observed = 0.72

[[record]]
binder = "LIGHT-90 (ligand, Printed mutations: S160G, T161G, L220T, E222S; Soluble protein carries an N-terminal His tag) DGPAGSWEQLIQERRSHEVNPAAHLTGANSSLTGSGGPLLWETQLGLAFLRGLSYHDGALVVTKAGYYYIYSKVQLGGVGCPLGLAGGITHGLYKRTPRYPEELELLVSQQSPCGRATSSSRVWWDSSFLGGVVHLEAGEKVVVRVTDSRLVRLRDGTRSYFGAFMV"
value_observed = 0.33

